# Experimental target: c-Met (cytoplasmic domain) (Homo sapiens)
# Construct: 10 ng/mL c-Met (cytoplasmic domain, Invitrogen Corporation #PV3143); purchased Invitrogen Corporation PV3143
# Test details: c-Met Kinase Assay (same methods as for ALK, with modifications)
# Assay type: biochemical
# Recorded conditions: 1 μM ATP (Km level), 10 ng/mL c-Met; read-out: cMet Activity (c-Met kinase inhibition, IC50 class)
pIC50: −log10 of the molar value.
# reported pIC50; entries follow
Test readout: pIC50

* CCN1C(=O)[C@@H](NC(=O)CN(C)C)CCc2c1ccc(Nc1ncc(Cl)c(N[C@H]3[C@@H](C(N)=O)[C@@H]4C=C[C@H]3C4)n1)c2OC (single isomer, unassigned) | < 5.00
* COCCN1CCc2ccc(Nc3ncc(Cl)c(Nc4c(F)cc(F)cc4N4CCOCC4)n3)cc2CC1 | 5.00 to 6.00
* CNC(=O)c1cccc(F)c1Nc1nc(Nc2ccc3c(c2)CNC(=O)CCN3C(C)=O)ncc1Cl | > 7.00

====

# Experimental target: baculovirus-expressed ALK (Homo sapiens, UniProt Q9UM73)
# Construct: host or cells: baculovirus expression system
# Sequence (Q9UM73 19-1620): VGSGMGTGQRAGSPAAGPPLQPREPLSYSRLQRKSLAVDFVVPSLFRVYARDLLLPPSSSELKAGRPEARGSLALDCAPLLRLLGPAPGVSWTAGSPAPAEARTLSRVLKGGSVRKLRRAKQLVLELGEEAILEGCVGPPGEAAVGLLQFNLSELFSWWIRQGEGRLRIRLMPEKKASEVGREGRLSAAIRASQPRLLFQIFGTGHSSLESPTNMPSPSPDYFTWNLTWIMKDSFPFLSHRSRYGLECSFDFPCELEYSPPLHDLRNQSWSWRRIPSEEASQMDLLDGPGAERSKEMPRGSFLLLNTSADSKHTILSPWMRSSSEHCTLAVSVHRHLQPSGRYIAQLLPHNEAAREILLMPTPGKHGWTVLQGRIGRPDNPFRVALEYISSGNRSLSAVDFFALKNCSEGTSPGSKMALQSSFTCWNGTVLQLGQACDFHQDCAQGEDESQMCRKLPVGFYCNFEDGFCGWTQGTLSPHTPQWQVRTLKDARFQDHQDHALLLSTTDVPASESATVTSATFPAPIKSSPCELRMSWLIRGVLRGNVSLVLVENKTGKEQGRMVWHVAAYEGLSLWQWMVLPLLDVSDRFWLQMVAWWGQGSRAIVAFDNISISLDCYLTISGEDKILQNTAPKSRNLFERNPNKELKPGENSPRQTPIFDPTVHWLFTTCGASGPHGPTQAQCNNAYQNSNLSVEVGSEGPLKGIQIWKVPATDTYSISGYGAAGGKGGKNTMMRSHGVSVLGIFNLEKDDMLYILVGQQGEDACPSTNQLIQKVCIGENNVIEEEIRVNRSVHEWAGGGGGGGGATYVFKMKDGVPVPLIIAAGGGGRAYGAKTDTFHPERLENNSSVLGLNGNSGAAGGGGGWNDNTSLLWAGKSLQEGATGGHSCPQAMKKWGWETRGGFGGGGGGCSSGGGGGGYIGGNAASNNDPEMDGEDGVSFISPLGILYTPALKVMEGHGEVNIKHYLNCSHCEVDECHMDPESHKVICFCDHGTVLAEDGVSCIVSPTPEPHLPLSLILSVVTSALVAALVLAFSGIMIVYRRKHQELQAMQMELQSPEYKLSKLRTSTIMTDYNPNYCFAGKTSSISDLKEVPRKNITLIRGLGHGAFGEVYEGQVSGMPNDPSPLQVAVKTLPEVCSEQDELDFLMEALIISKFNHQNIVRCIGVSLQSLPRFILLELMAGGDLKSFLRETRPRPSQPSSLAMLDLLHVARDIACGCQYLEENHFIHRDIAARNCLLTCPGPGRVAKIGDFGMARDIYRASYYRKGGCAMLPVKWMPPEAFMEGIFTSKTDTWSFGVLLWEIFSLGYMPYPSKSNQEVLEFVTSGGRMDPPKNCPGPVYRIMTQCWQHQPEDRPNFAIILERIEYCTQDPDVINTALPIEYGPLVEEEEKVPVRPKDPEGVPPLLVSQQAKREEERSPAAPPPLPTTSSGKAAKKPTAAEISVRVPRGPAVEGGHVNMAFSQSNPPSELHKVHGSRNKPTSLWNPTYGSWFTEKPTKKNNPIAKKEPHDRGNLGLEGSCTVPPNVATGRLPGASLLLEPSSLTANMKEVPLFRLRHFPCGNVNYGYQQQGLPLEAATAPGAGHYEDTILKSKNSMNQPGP
# Test details: ALK Kinase Assay (ELISA-type, time-resolved fluorescence)
# Type: biochemical
# Recorded conditions: ALK kinase inhibition, 1 μM ATP (Km level); read-out: ALK Activity
pIC50: −log10 of the molar value.
Test readout: pIC50

• COc1cc2c(cc1Nc1ncc(Cl)c(Nc3ccc(N4CCOCC4)cc3OC)n1)CCN(C[C@H](O)C(F)(F)F)CC2 = > 7.00
• COc1cc2c(cc1Nc1ncc(Cl)c(Nc3ccc(N4CCOCC4)cc3OC)n1)CCN(CCNC(C)=O)CC2 = > 7.00
• CCN1CCN(CC)c2cc(Nc3ncc(Cl)c(N[C@@H]4CCCC[C@H]4NS(C)(=O)=O)n3)ccc2C1 = > 7.00
• CNC(=O)c1ccccc1Nc1nc(Nc2ccc3c(c2)CN(CCOC)CCN3C)ncc1Cl = > 7.00
• CN1C(=O)CCCc2cc(Nc3ncc(Cl)c(Nc4ccccc4C(N)=O)n3)ccc21 = > 7.00
• CCOC(=O)N1C2CCC1c1cc(C(=O)OC)cc(Nc3ncc(Cl)c(Nc4ccccc4C(=O)NC)n3)c1C2 (stereo not drawn) = > 7.00
• CC(C)NC(=O)c1ccccc1Nc1nc(Nc2ccc3c(c2)C(C)(C)CCC(=O)N3)ncc1Cl = > 7.00
• CNC(=O)c1ccccc1Nc1nc(Nc2ccc3c(c2)CCCCN3C)ncc1Cl = > 7.00
• CNC(=O)c1cccc(F)c1Nc1nc(Nc2ccc3c(c2)CCN(CCOC)CC3)ncc1Cl = > 7.00
• CCN1CCN(CC)c2cc(Nc3ncc(Cl)c(Nc4ccccc4C(=O)NC)n3)ccc2C1 = > 7.00
• CNC(=O)c1ccccc1Nc1nc(Nc2cccc3c2CN(C(C)=O)CCN3)ncc1Cl = 6.00 to 7.00
• CN(C)C(=O)N1CCN(C)c2cc(Nc3ncc(Cl)c(N[C@@H]4CCCC[C@H]4NS(C)(=O)=O)n3)ccc2C1 = > 7.00
• COCCN1CCc2ccc(Nc3ncc(Cl)c(N[C@@H]4CCCC[C@H]4O)n3)cc2CC1 (relative stereo) = 5.00 to 6.00
• COCCN1CCc2ccc(Nc3ncc(Cl)c(NC(C)CNS(C)(=O)=O)n3)cc2CC1 (stereo not drawn) = 6.00 to 7.00
• CC1(C)CCC(=O)Nc2ccc(Nc3ncc(Cl)c(Nc4ccccc4-n4cccn4)n3)cc21 = > 7.00
• COc1c(Nc2ncc(Cl)c(NC3C4C=CC(C4)C3C(N)=O)n2)ccc2c1CCCC(=O)N2C (stereo not drawn) = > 7.00
• CC(=O)N[C@@H]1CCCC[C@H]1Nc1nc(Nc2ccc3c(c2)C(C)(C)CCC(=O)N3)ncc1Cl = > 7.00
• CCN1C(=O)CCCc2ccc(Nc3ncc(Cl)c(Nc4c(F)cccc4C(=O)NC)n3)cc21 = > 7.00
• CNC(=O)c1ccccc1Nc1nc(Nc2ccc3c(c2)C2CCC(C3)N2C(C)C)ncc1Cl (stereo not drawn) = > 7.00
• CNC(=O)c1ccccc1Nc1nc(Nc2ccc(OC)c3c2N(C)C(=O)CCC3)ncc1Cl = 6.00 to 7.00
• CCN1CCc2ccc(Nc3ncc(Cl)c(N[C@@H]4CCCC[C@H]4NS(C)(=O)=O)n3)c(OC)c2CC1 = > 7.00
• COc1cc(N2CCOCC2)ccc1Nc1nc(Nc2ccc3c(c2)CCC(F)(F)CC3)ncc1Cl = 6.00 to 7.00
• CCN1C(=O)CCCc2c1ccc(Nc1ncc(Cl)c(NC3C4CCC(C4)C3C(N)=O)n1)c2OC (stereo not drawn) = > 7.00
• CCOC(=O)N1CC(=O)N(CC)c2cc(Nc3ncc(Cl)c(Nc4c(F)cccc4C(=O)NC)n3)ccc2C1 = 5.00 to 6.00
• C#CCN1CCc2ccc(Nc3ncc(Cl)c(Nc4ccc(N5CCOCC5)cc4OC)n3)cc2CC1 = > 7.00
• NC(=O)C1C2C=CC(C2)C1Nc1nc(Nc2ccc3c(c2)CCN(CC(O)C(F)(F)F)CC3)ncc1Cl (mixture of isomers) = > 7.00
• COCCN1CCN(C)c2ccc(Nc3ncc(Cl)c(N[C@@H]4CCCC[C@H]4NS(C)(=O)=O)n3)cc2C1 = > 7.00
• CNC(=O)c1ccccc1Nc1nc(Nc2cc3c(cc2OC)CCN(CC(=O)N(C)C)CC3)ncc1Cl = > 7.00
• CCN1CCc2c(Nc3ncc(Cl)c(N[C@@H]4CCCC[C@H]4NS(C)(=O)=O)n3)ccc(OC)c2CC1 = > 7.00
• CCN1CCc2ccc(Nc3ncc(Cl)c(N[C@@H]4CCCC[C@H]4NC(=O)N(C)C)n3)cc2CC1 = 6.00 to 7.00

====

# Experimental target: baculovirus-expressed ALK (Homo sapiens)
# Construct: host or cells: baculovirus expression system
# Test details: ALK Kinase Assay (ELISA-type, time-resolved fluorescence)
# Format: biochemical
# Recorded conditions: ALK kinase inhibition, 1 μM ATP; read-out: ALK Activity
pIC50: −log10 of the molar value.
Reported pIC50 values are given for each entry in this list.
Test readout: pIC50

- COc1cc2c(cc1Nc1ncc(Cl)c(N[C@H]3[C@@H](C(N)=O)[C@@H]4C=C[C@H]3C4)n1)CCN(CC(C)O)CC2 (stereo partly shown): > 7.00
- COc1cc(N2CCOCC2)ccc1Nc1nc(Nc2ccc3c(c2)N(C(C)C)CCCC3(C)C)ncc1Cl: 6.00 to 7.00
- CNC(=O)c1sccc1Nc1nc(Nc2ccc3c(c2)CCOC(=O)N3C)ncc1Cl: 6.00 to 7.00
- CNC(=O)c1cccc(F)c1Nc1nc(Nc2ccc3c(c2)C(C)(C)NC(=O)CC3)ncc1Cl: 5.00 to 6.00
- CNC(=O)c1ccccc1Nc1nc(Nc2ccc3c(c2)N(C(C)=O)CCCO3)ncc1Cl: > 7.00
- CNC(=O)c1cccc(Cl)c1Nc1nc(Nc2ccc3c(c2)CC(=O)N(C)CC3)ncc1Cl: 5.00 to 6.00
- CNC(=O)c1cccc(F)c1Nc1nc(Nc2ccc3c(c2)NC(=O)CN(CCC(F)(F)F)C3)ncc1Cl: 6.00 to 7.00
- CCN1C(=O)C(NC(C)=O)CC(C)(C)c2ccc(Nc3ncc(Cl)c(Nc4c(F)cccc4C(=O)NC)n3)cc21 (stereo not shown): 6.00 to 7.00
- COCCOc1cccc(F)c1Nc1nc(Nc2ccc3c(c2)CCOC(=O)N3C)ncc1Cl: 6.00 to 7.00
- CNC(=O)c1cccc(F)c1Nc1nc(Nc2ccc3c(c2)CN(C)C(=O)CC3)ncc1Cl: 5.00 to 6.00

====

This listing pairs compounds with measured pIC50.
# Experimental target: c-Met (cytoplasmic domain) (Homo sapiens, UniProt P08581)
# Construct: 10 ng/mL c-Met (cytoplasmic domain, Invitrogen Corporation #PV3143); purchased Invitrogen Corporation PV3143
# Sequence (P08581 956-1390 limits assumed): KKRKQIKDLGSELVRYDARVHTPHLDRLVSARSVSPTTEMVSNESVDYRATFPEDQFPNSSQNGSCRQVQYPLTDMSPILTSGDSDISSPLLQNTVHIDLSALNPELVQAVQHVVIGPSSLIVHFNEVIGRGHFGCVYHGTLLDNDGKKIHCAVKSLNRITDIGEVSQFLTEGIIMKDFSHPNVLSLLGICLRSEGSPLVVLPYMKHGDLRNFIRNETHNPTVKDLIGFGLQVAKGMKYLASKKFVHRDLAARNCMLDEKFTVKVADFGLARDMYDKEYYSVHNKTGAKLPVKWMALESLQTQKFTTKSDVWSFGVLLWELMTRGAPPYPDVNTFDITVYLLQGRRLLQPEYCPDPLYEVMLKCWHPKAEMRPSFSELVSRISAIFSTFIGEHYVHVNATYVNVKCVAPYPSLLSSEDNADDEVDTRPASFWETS
# Test details: c-Met Kinase Assay (same methods as for ALK, with modifications)
# Format: biochemical
# Recorded conditions: c-Met kinase inhibition, 1 μM ATP; read-out: cMet Activity
pIC50: −log10 of the molar value.
Test readout: pIC50

• COCCOc1ccccc1Nc1nc(Nc2ccc3c(c2)CCOC(=O)N3C)ncc1Cl [Example 1777] = 6.00 to 7.00
• COCCN1CCCC(C)(C)c2ccc(Nc3ncc(Cl)c(Nc4ccc(N5CCOCC5)cc4OC)n3)cc21 [Example 1601] = < 5.00
• CC(C)[C@@H](Nc1nc(Nc2ccc3c(c2)CC(=O)N(C)CC3)ncc1Cl)C(N)=O [Example 1822] = 5.00 to 6.00
• CCN1CC(=O)Nc2cc(Nc3ncc(Cl)c(Nc4c(C)csc4C(=O)NC)n3)ccc2C1 [Example 1865] = 6.00 to 7.00
• CNC(=O)c1sccc1Nc1nc(Nc2ccc3c(c2)N(C(=O)CN2CCCC2)CCCO3)ncc1Cl [Example 1705] = 6.00 to 7.00
• CCN1CCNC(=O)c2ccc(Nc3ncc(Cl)c(N[C@@H]4CCCC[C@H]4NS(C)(=O)=O)n3)cc21 [Example 1451] = 6.00 to 7.00
• C#CCNC(=O)c1cc(F)cc(F)c1Nc1nc(Nc2ccc3c(c2)N(C(=O)N2CCCC2)CCCC3(C)C)ncc1Cl [Example 1622] = 6.00 to 7.00
• O=C1CCCc2ccc(Nc3ncc(Cl)c(Nc4ccccc4OCCN4CCOCC4)n3)cc2N1 [Example 1465] = < 5.00
• CCN1CC(O)(CO)COc2cc(Nc3ncc(Cl)c(Nc4c(F)cccc4C(=O)NC)n3)ccc21 (stereo not drawn) [Example 1736] = > 7.00
• COCCOc1cccc(F)c1Nc1nc(Nc2ccc3c(c2)CCOC(=O)N3C)ncc1Cl [Example 1778] = 6.00 to 7.00
• COc1cc2c(cc1Nc1ncc(Cl)c(N[C@@H]3CCCC[C@H]3NS(C)(=O)=O)n1)NC(=O)CN(CC1CC1)C2 [Example 1666] = < 5.00
• COc1cc2c(cc1Nc1ncc(Cl)c(Nc3ccccc3S(=O)(=O)N(C)C)n1)CCN(CCOP(=O)(O)O)CC2 [Example 1545] = 5.00 to 6.00
• CNC(=O)c1ccccc1Nc1nc(Nc2ccc3c(c2)NC(=O)CN(Cc2ccccc2)C3)ncc1Cl [Example 1859] = 6.00 to 7.00
• CNC(=O)c1sccc1Nc1nc(Nc2ccc3c(c2)CCOC(=O)N3C)ncc1Cl [Example 1747] = > 7.00
• CNC(=O)c1cc(-c2cnn(C)c2)cc(F)c1Nc1nc(Nc2ccc3c(c2)NC(=O)CCC3(C)C)ncc1Cl [Example 1624] = > 7.00
